Test system: Paecilomyces farinosus (AGM 5)
Experiment: Screening of fungi for enzyme activity with 4-methylumbelliferone-labelled substrates
Format: cell-based
Settings: vegetable juice medium, substrate 10 μM, 25° C., pH 5
experimentalReadout: Enzyme activity: amount of released 4-methylumbelliferone during 5 hours of incubation (µmol)

{"columns": ["compound", "numericValue"],
 "data": [
  ["Cc1cc(=O)oc2cc(O[C@@H]3OC[C@@H](O)[C@H](O)[C@H]3O)ccc12 [substrate 9, 4-methylumbelliferyl β-D-xyloside]", 0],
  ["Cc1cc(=O)oc2cc(O[C@H]3O[C@H](C)[C@H](O)[C@H](O)[C@H]3O)ccc12 [substrate 10, 4-methylumbelliferyl α-D-fucoside]", 0],
  ["Cc1cc(=O)oc2cc(OC3OC(CO)C(O)C(O)C3O)ccc12 [substrate 5, 4-methylumbelliferyl α-D-mannopyranoside]", 0],
  ["CC(=O)N[C@H]1[C@@H](Oc2ccc3c(C)cc(=O)oc3c2)O[C@H](CO)[C@@H](O)[C@@H]1O [substrate 2]", 0],
  ["CC(=O)N[C@H]1[C@H](Oc2ccc3c(C)cc(=O)oc3c2)O[C@H](COS(=O)(=O)O)[C@@H](O)[C@@H]1O [substrate 1]", 0],
  ["Cc1cc(=O)oc2cc(O[C@H]3O[C@H](CO)[C@@H](O)[C@H](O)[C@H]3O)ccc12 [substrate 7, 4-methylumbelliferyl α-D-glucoside]", 0],
  ["Cc1cc(=O)oc2cc(O[C@@H]3O[C@H](C)[C@H](O)[C@H](O)[C@H]3O)ccc12 [substrate 11, 4-methylumbelliferyl β-D-fucoside]", 0],
  ["Cc1cc(=O)oc2cc(O[C@@H]3O[C@H](CO)[C@@H](O)[C@H](O)[C@@H]3O)ccc12 [substrate 6, 4-methylumbelliferyl β-D-mannopyranoside]", 0],
  ["Cc1cc(=O)oc2cc(O[C@@H]3O[C@H](CO)[C@@H](O[C@@H]4O[C@H](CO)[C@H](O)[C@H](O)[C@H]4O)[C@H](O)[C@H]3O)ccc12 [substrate 8, 4-methylumbelliferyl β-D-lactoside]", 0]
]}

* * *

Tested on: Sodaria fimicola (AAS 17)
Test: Screening of fungi for enzyme activity with 4-methylumbelliferone-labelled substrates
Format: cell-based
Settings: vegetable juice medium, substrate 10 μM, 25° C., pH 5
experimentalReadout: Enzyme activity: amount of released 4-methylumbelliferone during 5 hours of incubation (µmol)

{"columns": ["compound", "testedOn", "numericValue"],
 "data": [
  ["CC(=O)N[C@H]1[C@H](Oc2ccc3c(C)cc(=O)oc3c2)O[C@H](COS(=O)(=O)O)[C@@H](O)[C@@H]1O [substrate 1]", "Sodaria fimicola (AAS 17)", 0],
  ["Cc1cc(=O)oc2cc(O[C@H]3O[C@H](C)[C@H](O)[C@H](O)[C@H]3O)ccc12 [substrate 10, 4-methylumbelliferyl α-D-fucoside]", "Sodaria fimicola (AAS 17)", 0]
]}

* * *

Tested on: Sodaria fimicola (AAS 17)
Experiment: Screening of fungi for enzyme activity with 4-methylumbelliferone-labelled substrates
Assay type: cell-based
Details: vegetable juice medium, substrate 10 μM, 25° C., pH 5
experimentalReadout: Enzyme activity: amount of released 4-methylumbelliferone during 5 hours of incubation (µmol)

{"columns": ["molecule", "numericValue"],
 "data": [
  ["CC(=O)N[C@H]1[C@@H](Oc2ccc3c(C)cc(=O)oc3c2)O[C@H](CO)[C@@H](O)[C@@H]1O [substrate 2]", 0],
  ["Cc1cc(=O)oc2cc(O[C@@H]3OC[C@@H](O)[C@H](O)[C@H]3O)ccc12 [substrate 9, 4-methylumbelliferyl β-D-xyloside]", 0],
  ["Cc1cc(=O)oc2cc(O[C@@H]3O[C@H](C)[C@H](O)[C@H](O)[C@H]3O)ccc12 [substrate 11, 4-methylumbelliferyl β-D-fucoside]", 0]
]}
